- Tested on: Escherichia coli TOP10
- EXPERIMENTAL_PROTOCOL: shrunken log2 fold change of peptide-encoding DNA abundance (4.5 h post-induction vs induction); higher = less antimicrobial activity (less host growth inhibition)
- TEST_PARAMETERS: time post-induction: 4.5 h; library: site-saturation at positions 5, 18, 19, 20
VALUE_KIND: shrunken log2 fold change

RRIRPRPPRLPRPRPRPCSCPRP = -0.516
RRIRFRPPRLPRPRPRPWDHPRP = -0.483
RRIRFRPPRLPRPRPRPLEMPRP = -0.357
RRIRIRPPRLPRPRPRPLIFPRP = -0.562
RRIRDRPPRLPRPRPRPNKMPRP = -0.195
RRIRARPPRLPRPRPRPLETPRP = 0.9
RRIRARPPRLPRPRPRPVNLPRP = 0.0654
RRIRVRPPRLPRPRPRPLYMPRP = -0.128
RRIRFRPPRLPRPRPRPFGYPRP = -0.113
RRIRIRPPRLPRPRPRPDEFPRP = 0.0764

List shrunken log2 fold change for every entry below, keeping the order given.
1. RRIRLRPPRLPRPRPRPIWIPRP
2. RRIRDRPPRLPRPRPRPLKRPRP
3. RRIRMRPPRLPRPRPRPLGMPRP
4. RRIRMRPPRLPRPRPRPTFGPRP
5. RRIRDRPPRLPRPRPRPSGPPRP
6. RRIRNRPPRLPRPRPRPNVSPRP
7. RRIRARPPRLPRPRPRPSLGPRP

1: -0.134; 2: -0.0492; 3: -0.112; 4: 0.374; 5: -0.0549; 6: 0.0376; 7: 0.188

List shrunken log2 fold change for every entry below, keeping the order given.
1. RRIRGRPPRLPRPRPRPTCAPRP
2. RRIRRRPPRLPRPRPRPGGEPRP

1: 1.11; 2: 0.356

List shrunken log2 fold change for every entry below, keeping the order given.
1. RRIRHRPPRLPRPRPRPAPYPRP
2. RRIRKRPPRLPRPRPRPAPVPRP
3. RRIRMRPPRLPRPRPRPISSPRP
4. RRIRSRPPRLPRPRPRPIMNPRP
5. RRIRKRPPRLPRPRPRPSAVPRP
6. RRIRDRPPRLPRPRPRPKPGPRP
7. RRIRVRPPRLPRPRPRPMPKPRP
8. RRIRRRPPRLPRPRPRPGLDPRP

1. 0.296
2. 0.668
3. -0.0416
4. -0.0954
5. 0.0941
6. 0.654
7. 0.0271
8. 0.161

List shrunken log2 fold change for every entry below, keeping the order given.
1. RRIRWRPPRLPRPRPRPRWSPRP
2. RRIRNRPPRLPRPRPRPMLWPRP
3. RRIRHRPPRLPRPRPRPKAEPRP
4. RRIRHRPPRLPRPRPRPTRKPRP
5. RRIRKRPPRLPRPRPRPLWVPRP

[0.372, 0.0244, 0.0672, 0.00421, 0.0688]

* * *

- System: Escherichia coli TOP10
- EXPERIMENTAL_PROTOCOL: shrunken log2 fold change of peptide-encoding DNA abundance (4.5 h post-induction vs induction); higher = less antimicrobial activity (less host growth inhibition)
- TEST_PARAMETERS: time post-induction: 4.5 h; library: site-saturation at positions 5, 18, 19, 20
VALUE_KIND: shrunken log2 fold change
One number for each entry.

RRIRQRPPRLPRPRPRPRIHPRP = -0.234
RRIRVRPPRLPRPRPRPCYRPRP = -0.00925
RRIRSRPPRLPRPRPRPECQPRP = -0.00188
RRIRPRPPRLPRPRPRPLMDPRP = -0.145
RRIRERPPRLPRPRPRPHAPPRP = -0.0944
RRIRYRPPRLPRPRPRPLMHPRP = -1.02
RRIRSRPPRLPRPRPRPFSQPRP = -1.07
RRIRKRPPRLPRPRPRPPSNPRP = 0.714

List shrunken log2 fold change for every entry below, keeping the order given.
1. RRIRVRPPRLPRPRPRPHDTPRP
2. RRIRVRPPRLPRPRPRPFMIPRP
3. RRIRNRPPRLPRPRPRPMYFPRP
4. RRIRSRPPRLPRPRPRPYYHPRP

-0.212
-0.256
-0.0737
-0.44

* * *

I'd appreciate it if you could supply shrunken log2 fold change values for the items below.
- Test system: Escherichia coli TOP10
- EXPERIMENTAL_PROTOCOL: shrunken log2 fold change of peptide-encoding DNA abundance (4.5 h post-induction vs induction); higher = less antimicrobial activity (less host growth inhibition)
- TEST_PARAMETERS: time post-induction: 4.5 h; library: site-saturation at positions 5, 18, 19, 20

RRIRVRPPRLPRPRPRPEFWPRP = 0.439
RRIRNRPPRLPRPRPRPMMTPRP = -0.312
RRIRVRPPRLPRPRPRPEKGPRP = -0.09
RRIRIRPPRLPRPRPRPSESPRP = -0.159
RRIRWRPPRLPRPRPRPSKHPRP = -0.499
RRIRHRPPRLPRPRPRPHNFPRP = -0.0184
RRIRMRPPRLPRPRPRPQSEPRP = 0.446
RRIRDRPPRLPRPRPRPGCFPRP = 0.565
RRIRRRPPRLPRPRPRPWFSPRP = -0.0902
RRIRLRPPRLPRPRPRPGRRPRP = 0.363

List shrunken log2 fold change for every entry below, keeping the order given.
1. RRIRIRPPRLPRPRPRPNESPRP
2. RRIRSRPPRLPRPRPRPNTLPRP
3. RRIRTRPPRLPRPRPRPETWPRP
4. RRIRVRPPRLPRPRPRPDQPPRP
5. RRIRVRPPRLPRPRPRPTGQPRP

1: -0.243; 2: -0.373; 3: -0.0622; 4: 0.166; 5: 0.526

* * *

I'd appreciate it if you could supply shrunken log2 fold change values for the items below.
- Tested on: Escherichia coli TOP10
- EXPERIMENTAL_PROTOCOL: shrunken log2 fold change of peptide-encoding DNA abundance (4.5 h post-induction vs induction); higher = less antimicrobial activity (less host growth inhibition)
- TEST_PARAMETERS: time post-induction: 4.5 h; library: site-saturation at positions 5, 18, 19, 20
Numbers only.

RRIRWRPPRLPRPRPRPWVDPRP = -0.119
RRIRYRPPRLPRPRPRPNNGPRP = -0.156
RRIRNRPPRLPRPRPRPPLPPRP = 0.363
RRIRSRPPRLPRPRPRPKQMPRP = -0.0354
RRIRCRPPRLPRPRPRPAGPPRP = 0.116
RRIRRRPPRLPRPRPRPQGGPRP = 0.0141
RRIRRRPPRLPRPRPRPSCYPRP = -0.0677
RRIRSRPPRLPRPRPRPLRYPRP = 0.166
RRIRWRPPRLPRPRPRPRSLPRP = -0.115
RRIRWRPPRLPRPRPRPCWYPRP = -0.277

List shrunken log2 fold change for every entry below, keeping the order given.
1. RRIRQRPPRLPRPRPRPWIPPRP
2. RRIRMRPPRLPRPRPRPPQHPRP
3. RRIRSRPPRLPRPRPRPPHVPRP

[0.0265, 0.817, 0.113]

List shrunken log2 fold change for every entry below, keeping the order given.
1. RRIRVRPPRLPRPRPRPPMIPRP
2. RRIRSRPPRLPRPRPRPFIHPRP
3. RRIRLRPPRLPRPRPRPVSMPRP
4. RRIRWRPPRLPRPRPRPGMTPRP
5. RRIRMRPPRLPRPRPRPFEHPRP
6. RRIRERPPRLPRPRPRPGLHPRP

1: -0.523; 2: -0.154; 3: -0.302; 4: 0.167; 5: -0.327; 6: -0.124

List shrunken log2 fold change for every entry below, keeping the order given.
1. RRIRERPPRLPRPRPRPSKHPRP
2. RRIRNRPPRLPRPRPRPEKDPRP
3. RRIRIRPPRLPRPRPRPNCGPRP
4. RRIRYRPPRLPRPRPRPDYKPRP
5. RRIRDRPPRLPRPRPRPNDDPRP
6. RRIRHRPPRLPRPRPRPIKTPRP
7. RRIRFRPPRLPRPRPRPLRLPRP
8. RRIRMRPPRLPRPRPRPYSTPRP

-0.775
-0.0532
0.0437
-0.136
0.226
-0.00476
0.891
-0.137

* * *

I'd appreciate it if you could supply shrunken log2 fold change values for the items below.
- System: Escherichia coli TOP10;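 also: peptides expressed intracellularly from a pBAD plasmid library in pooled LB shake-flask culture, induced with 0.3% L-arabinose, DNA abundance read by NGS, three biological replicates, DESeq2 with apeglm shrinkage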
- EXPERIMENTAL_PROTOCOL: shrunken log2 fold change of peptide-encoding DNA abundance (4.5 h post-induction vs induction); higher = less antimicrobial activity (less host growth inhibition)
- TEST_PARAMETERS: time post-induction: 4.5 h; library: site-saturation at positions 5, 18, 19, 20
Numbers only.

Observe how each entry below is paired with its result.
RRIRLRPPRLPRPRPRPPQDPRP = 0.348
RRIRERPPRLPRPRPRPCWTPRP = 0.0421
RRIRGRPPRLPRPRPRPMRDPRP = 0.947
RRIRERPPRLPRPRPRPVTQPRP = -0.282
RRIRNRPPRLPRPRPRPKTLPRP = -0.134
RRIRTRPPRLPRPRPRPPSAPRP = 0.442
RRIRKRPPRLPRPRPRPFEKPRP = -0.045
RRIRDRPPRLPRPRPRPQPCPRP = -0.0957

List shrunken log2 fold change for every entry below, keeping the order given.
1. RRIRNRPPRLPRPRPRPPTDPRP
2. RRIRVRPPRLPRPRPRPILHPRP

[0.992, 1.12]

List shrunken log2 fold change for every entry below, keeping the order given.
1. RRIRRRPPRLPRPRPRPKTFPRP
2. RRIRGRPPRLPRPRPRPCKGPRP
3. RRIRKRPPRLPRPRPRPFYSPRP
4. RRIRARPPRLPRPRPRPKEDPRP
5. RRIRQRPPRLPRPRPRPHFIPRP

1. -0.0358
2. -0.0939
3. 0.00762
4. 0.133
5. -0.328

// data source = the supplement of paper PMC9112550
